test system: Plasmodium berghei; assay: Screen against P. berghei liver stage (PbLuc), transformed with Luciferase, at 2uM; format: functional, HepG2; details: tested at 2 uM
Out of some 68,000 compounds screened, about 2,700 (4%) showed an effect of 50% or more. The sample as a whole holds a higher share of strong results than the screen did.
quantity_measured: INHIBITION (%)
Provide the reading as a plain figure in %.

A selection of reference data follows.
compound	scale_unit	INHIBITION
Cc1nc2c(c(N3CCCC(OCc4ccccn4)C3)n1)CCNCC2 (stereo not drawn)	%	20.71
Cc1nn(C)c(N(C)C)c1CNCc1cccc(Cn2cccn2)c1	%	50.32

Name the recorded INHIBITION for N#Cc1ccccc1N1CC2(CCCCN2CC2CC2)CC1=O (stereo not drawn) .
-47.71

Name the recorded INHIBITION for COCC(=O)N1CC(=O)c2sc(Nc3ccc(F)cc3F)nc2C1 .
-0.83

Name the recorded INHIBITION for Cc1csc(CN2CCC(C(=O)O)(n3ccc(-c4ccco4)n3)CC2)n1 .
-8.84

Name the recorded INHIBITION for COCC(=O)NCCn1ccc2c(OC)cccc21 .
50.32

Name the recorded INHIBITION for O=C(CCO)N[C@H]1CN(CC2CCC2)C[C@@H]1c1ccccc1 .
75.86

Name the recorded INHIBITION for CN(Cc1ccc(C#N)cc1)CC1CCS(=O)(=O)C1 (stereo not drawn) .
54.78

Name the recorded INHIBITION for c1ccc2nc(CN3CCCC3c3noc(C4CC4)n3)ccc2c1 (stereo not drawn) .
0.74

Name the recorded INHIBITION for O=C(NCC1CC1)C1CCC2(CCN(C(=O)c3ccncc3)CC2)O1 (stereo not drawn) .
52.36

* * *

tested on: Plasmodium berghei; test: Screen against P. berghei liver stage (PbLuc), transformed with Luciferase, at 2uM; assay type: functional, HepG2; settings: tested at 2 uM
The campaign covered roughly 68,000 compounds. About 2,700 (4%) showed an effect of 50% or more. The list comes from a sample in which strong results are over-represented; it also holds close analogues and randomly drawn compounds.
quantity_measured: INHIBITION (%)
Provide the reading as a plain figure in %.

compound	experimental_target	assay_value
CC(=O)N1CCC2(CC1)NC(=O)[C@H]1CN(Cc3cccnc3)C[C@H]12	Plasmodium berghei	56.76

Name the recorded INHIBITION for Cn1cccc1C(=O)NC[C@H]1C[C@@H]2CN(C(=O)c3ccno3)C[C@H]2O1 .
50.32

Name the recorded INHIBITION for CC(=O)NCCCSC1CCN(c2c(F)cccc2F)C1=O (stereo not given) .
41.07

Name the recorded INHIBITION for CCc1n[nH]c(SCC(=O)N2CCc3[nH]nc(C4CCC4)c3C2)n1 .
23.45

Name the recorded INHIBITION for Cn1nnnc1SC1CCN(c2ccccc2Cl)C1=O (stereo not given) .
4.99

Name the recorded INHIBITION for O=C(NC[C@H]1C[C@@H]2CN(C(=O)c3ccno3)C[C@@H]2O1)C1CCC1 .
55.52

* * *

INHIBITION values for the molecules below.
tested on: Plasmodium berghei; experiment: Screen against P. berghei liver stage (PbLuc), transformed with Luciferase, at 2uM; assay type: functional, HepG2; conditions: tested at 2 uM
About 2,700 (4%) of roughly 68,000 compounds showed an effect of 50% or more. What follows is part of a selection rich in strong results, with near analogues and random picks from the rest.
Provide the reading as a plain figure in %.

A selection of reference data follows.
molecule	INHIBITION [%]
CN(C)CC(=O)N1CCCC2(CCC(=O)N(CCc3c[nH]cn3)C2)C1 (stereo unspecified)	38.93
Cc1cc(C)nc(N2CCN(Cc3nccn3C)CC2)n1	5.78
O=C(NC1CCc2[nH]c(=O)ccc2C1)C1CCOCC1 (stereo unspecified)	0.79
CCn1ncc(CN2CCc3c(nc(-c4cccnc4)[nH]c3=O)C2)c1C	54.82
CNc1cc(C(=O)N2CCOC(C(=O)NC3CCCC3)C2)ccn1 (stereo unspecified)	-5.76
Cn1cnc(-c2ccc(F)cc2)c1NC(=O)CCNC(=O)C(C)(C)C	37.66
CC(C)Nc1nc2c(c(N(C)C)n1)CCN(Cc1nccn1C)CC2	28.11
CCn1ncc(CN2CCc3nc(-c4cccnc4)nc(O)c3C2)c1C	21.14
Cc1cc(N(C)C)nc(N2CCn3c(C)nnc3C2)n1	29.13
Cc1cc(N(C)C)nc(N2CCN(Cc3nccn3C)CC2)n1	50.61

Please turn your attention to the following entry.
Name the recorded INHIBITION for CN(CC1CCCCO1)S(=O)(=O)c1cccc(C(=O)N2CCOCC2)c1 (stereo unspecified) .
-40.47
